Value source: patent US8906897B2

system: Candida albicans No. 927; assay: Antifungal activity, culture growth with pH indicator; assay type: cell-based; set-up: key: (−) No growth; the indicator is blue; (±) Weak growth; the indicator is yellow, but the precipitate of grown cells looks as a diffuse spot; (+) Strong growth; the indicator is yellow, and the cell precipitate looks as a compact spot; settings: dilution : 4 of 1 × 10^−4 M
recorded-endpoint: Test culture growth at various dilutions of the agent

compound	reported
C=CC1=C(C)c2cc3[n-]c(cc4nc(cc5[n-]c(cc1n2)c(C)c5CCC(=O)NCCO)C(CCC(=O)NCCO)=C4C)c(C)c3C=C.[Cl-].[Fe+3]	+
C=CC1=C(C)c2cc3[n-]c(cc4nc(cc5[n-]c(cc1n2)c(C)c5CCC(=O)N[C@@H](CCCNC(=N)N)C(=O)OC)C(CCC(=O)N[C@@H](CCCNC(=N)N)C(=O)OC)=C4C)c(C)c3C=C.[Cl-].[Fe+3]	+
C[C@@H]1C/C=C/C=C/C=C/C=C/[C@H](O[C@@H]2O[C@H](C)[C@@H](O)[C@H](N)[C@@H]2O)C[C@@H]2O[C@](O)(C[C@@H](O)C[C@H]3O[C@@H]3/C=C/C(=O)O1)C[C@H](O)[C@H]2C(=O)O [Pimafucin, reference compound]	−
